Where do the numbers come from? From patent US20020169175A1.

Assay overview: Single dose oral pharmacokinetic studies in male Wistar rats
Format: in vivo, rat
Test settings: male, Wistar, rat, plasma, po, 30 mg/kg, fasted, suspension in 0.25% sodium CMC, read-out: AUC (0-t)
Listed here are compounds together with their documented AUC(0-t).
Form entry: value (ng·h/mL) — number only.

Query string: Supply recorded AUC(0-t) for CCO[C@@H](Cc1ccc(OCCn2c(CC)nc3ccccc3c2=O)cc1)C(=O)O here.
Result string: 40600

Continuing:
Query string: Return value of AUC(0-t) for input CCCc1nn(C)c2c(=O)n(CCOc3ccc(C[C@H](OCC)C(=O)O)cc3)c(CC)nc12 , no commentary.
Result string: 77800

Query string: Output AUC(0-t) of CCO[C@@H](Cc1ccc(OCCn2c(CC)nc(-c3ccccc3)cc2=O)cc1)C(=O)O
Result string: 90100

Query string: Please give the documented AUC(0-t) of CCO[C@@H](Cc1ccc(OCCn2c(CC)nc(-c3ccccc3)cc2=O)cc1)C(=O)[O-].[Na+]
Result string: 82200

Query string: Output measured AUC(0-t) for this item: CCO[C@@H](Cc1ccc(OCCn2c(CC)nc(-c3ccccc3)cc2=O)cc1)C(=O)[O-].[K+]
Result string: 61200

----------
Assay overview: Single dose oral pharmacokinetic studies in male Wistar rats
Type: in vivo, rat
Test settings: fasted, suspension in 0.25% sodium CMC
Listed compounds paired with reported t½
Write the value in h as a bare number.

// worked examples, t½ included
Query string: Give recorded t½. CCO[C@@H](Cc1ccc(OCCn2c(CC)nc3ccccc3c2=O)cc1)C(=O)O [Example 7]
Result string: 1.91

Query string: Given CCCc1nn(C)c2c(=O)n(CCOc3ccc(C[C@H](OCC)C(=O)O)cc3)c(CC)nc12 [Example 45] , respond with its t½.
Result string: 1.72

Query string: Dear colleague, please send me the reported t½ for CCO[C@@H](Cc1ccc(OCCn2c(CC)nc3ccccc3c2=O)cc1)C(=O)O [Example 10] when you can.
Result string: 2.16

Others:
Query string: Please report the measured t½ for CCCc1nn(C)c2c(=O)n(CCOc3ccc(CC(OCC)C(=O)[O-])cc3)c(CC)nc12.CCCc1nn(C)c2c(=O)n(CCOc3ccc(CC(OCC)C(=O)[O-])cc3)c(CC)nc12.[Mg+2] (single isomer, unassigned; (-)) [Example 31]
Result string: 2.24

----------
Experimental target: hPPARα (Homo sapiens, UniProt Q07869)
Construct: expressed in transfected cells; host or cells: HEK-293
Sequence (Q07869 239-466 limits assumed): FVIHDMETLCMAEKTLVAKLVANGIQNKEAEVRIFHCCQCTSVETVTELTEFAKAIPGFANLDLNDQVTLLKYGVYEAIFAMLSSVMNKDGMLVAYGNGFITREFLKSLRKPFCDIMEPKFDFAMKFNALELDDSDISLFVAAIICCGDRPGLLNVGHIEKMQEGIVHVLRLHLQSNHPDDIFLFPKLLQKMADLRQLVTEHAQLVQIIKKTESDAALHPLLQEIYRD
Assay overview: Determination of hPPARα activity (GAL4 fusion luciferase reporter in transfected HEK-293 cells)
Type: cell-based
Test settings: compound concentration 50 μM
Measured PPARα values are reported for all entries that follow.
Give a plain numeric answer without units written out.

Sample records with PPARα:
Query string: Specify measured PPARα for CCO[C@@H](Cc1ccc(OCCn2c(CC)nc3ccccc3c2=O)cc1)C(=O)O .
Result string: 13.8

Query string: Entry CCCc1nn(C)c2c(=O)n(CCOc3ccc(C[C@H](OCC)C(=O)O)cc3)c(C)nc12 needs its PPARα filled in; supply it.
Result string: 3.4

Query string: Item CCCc1nn(C)c2c(=O)n(CCOc3ccc(C[C@H](OCC)C(=O)[O-])cc3)c(C)nc12.[Na+] : provide PPARα
Result string: 3.5

Query string: Specify PPARα for CCCc1nn(C)c2c(=O)n(CCOc3ccc(C[C@H](OCC)C(=O)O)cc3)c(CC)nc12 [Example 41] and stop.
Result string: 3.1

Others:
Query string: Look up and report measured PPARα for this entry: CCCc1nn(C)c2c(=O)n(CCOc3ccc(C[C@H](OCC)C(=O)O)cc3)c(CC)nc12 [Example 44]
Result string: 2.5

Query string: Assign PPARα to the following record: CCCc1nn(C)c2c(=O)n(CCOc3ccc(CC(OCC)C(=O)[O-])cc3)c(C)nc12.CCCc1nn(C)c2c(=O)n(CCOc3ccc(CC(OCC)C(=O)[O-])cc3)c(C)nc12.[Mg+2] (stereo not shown)
Result string: 3.4

Query string: Give recorded PPARα. CCCc1nn(C)c2c(=O)n(CCOc3ccc(C[C@H](OCC)C(=O)O)cc3)c(CC)nc12 [Example 38]
Result string: 3.3
